These measurements were taken from the supplement of paper PMC10307832.

system: NCI-H1915; test: relative viability (nuclei count vs DMSO), 5 days (fraction); higher = more cells survive; settings: first compound 0.01581 µM
Decision: relative viability beneath 0.9 gives Fulfilled; relative viability meeting or exceeding 0.9 gives Not fulfilled.

COMPOUND	TARGET SYSTEM	ASSIGNED CATEGORY
Nc1ccn([C@@H]2O[C@H](CO)[C@@H](O)[C@@H]2O)c(=O)n1 [Cytarabine] + Nc1nc2[nH]cc(CCc3ccc(C(=O)N[C@@H](CCC(=O)O)C(=O)O)cc3)c2c(=O)[nH]1 [Pemetrexed] (partner 0.2 µM)	NCI-H1915	Fulfilled
COc1cc2nccc(Oc3ccc(NC(=O)Nc4cc(C)on4)c(Cl)c3)c2cc1OC [Tivozanib] + CC(C)C[C@H](NC(=O)[C@H](Cc1ccccc1)NC(=O)c1cnccn1)B(O)O [Bortezomib] (partner 0.002 µM)	NCI-H1915	Not fulfilled
Nc1ccn([C@@H]2O[C@H](CO)[C@@H](O)[C@@H]2O)c(=O)n1 [Cytarabine] + CC(=O)Nc1cccc(-n2c(=O)n(C3CC3)c(=O)c3c(Nc4ccc(I)cc4F)n(C)c(=O)c(C)c32)c1 [Trametinib] (partner 0.02 µM)	NCI-H1915	Fulfilled
Nc1ccn([C@@H]2O[C@H](CO)[C@@H](O)[C@@H]2O)c(=O)n1 [Cytarabine] + COc1cccc2cc(-c3nc([C@H]4CC[C@H](C(=O)O)CC4)n4ncnc(N)c34)[nH]c12 [OSI-027] (partner 0.5 µM)	NCI-H1915	Fulfilled
COc1cc2nccc(Oc3ccc(NC(=O)Nc4cc(C)on4)c(Cl)c3)c2cc1OC [Tivozanib] + NC(=O)Nc1cc(-c2cccc(F)c2)sc1C(=O)N[C@H]1CCCNC1 [AZD7762] (partner 0.2 µM)	NCI-H1915	Fulfilled
Nc1ccn([C@@H]2O[C@H](CO)[C@@H](O)[C@@H]2O)c(=O)n1 [Cytarabine] + Nc1ncn([C@H]2C[C@H](O)[C@@H](CO)O2)c(=O)n1 [Decitabine] (partner 2 µM)	NCI-H1915	Fulfilled
COc1cc2nccc(Oc3ccc(NC(=O)Nc4cc(C)on4)c(Cl)c3)c2cc1OC [Tivozanib] + CCNC(=O)c1noc(-c2cc(C(C)C)c(O)cc2O)c1-c1ccc(CN2CCOCC2)cc1 [Luminespib] (partner 0.01 µM)	NCI-H1915	Fulfilled
Nc1ccn([C@@H]2O[C@H](CO)[C@@H](O)[C@@H]2O)c(=O)n1 [Cytarabine] + O=C(c1cc(Cc2n[nH]c(=O)c3ccccc23)ccc1F)N1CCN(C(=O)C2CC2)CC1 [Olaparib] (partner 8 µM)	NCI-H1915	Fulfilled
Nc1ccn([C@@H]2O[C@H](CO)[C@@H](O)[C@@H]2O)c(=O)n1 [Cytarabine] + CS(=O)(=O)CCNCc1ccc(-c2ccc3ncnc(Nc4ccc(OCc5cccc(F)c5)c(Cl)c4)c3c2)o1 [Lapatinib] (partner 2 µM)	NCI-H1915	Not fulfilled
